Data provenance: patent US20050101595A1

assay-system: CDK2/Cyclin A (Homo sapiens, UniProt P24941)
assay-procedure: Inhibition of CDK2/Cyclin A Retinoblastoma Kinase Activity
Type: biochemical
assay-conditions: at 0.03 μM
metric: CDK2 % Inhibition at 0.03 μM
Could you kindly put the unit after your number?

Example cases with answers are listed next.
Nc1nc(NC2CCN(C(=O)N3CCOCC3)CC2)sc1C(=O)c1c(F)cccc1F	7%
CCN1CCN(C(=O)N2CCC(Nc3nc(N)c(C(=O)c4c(F)cccc4F)s3)CC2)C(=O)C1=O	21%
Nc1nc(NC2CCN(C(=O)C3(c4ccccc4)CCCC3)CC2)sc1C(=O)c1c(F)cccc1F	−13%
CC(C)(C)c1cc(C(=O)N2CCC(Nc3nc(N)c(C(=O)c4c(F)cccc4F)s3)CC2)n(Cc2ccccc2)n1	41%
COc1c(C(=O)N2CCC(Nc3nc(N)c(C(=O)c4c(F)cccc4F)s3)CC2)csc1Br	51%

## Task Note CDK2 % Inhibition at 0.03 μM for the compound shown: COc1ccc(C(=O)N2CCC(Nc3nc(N)c(C(=O)c4c(F)cccc4F)s3)CC2)c(OC)c1 [Example R8]
## Result −11%

## Task Note CDK2 % Inhibition at 0.03 μM for the compound shown: Nc1nc(NC2CCN(C(=O)c3ccccc3OC(F)(F)F)CC2)sc1C(=O)c1c(F)cccc1F
## Result −6%

## Task Note CDK2 % Inhibition at 0.03 μM for the compound shown: Nc1nc(NC2CCN(C(=O)CCc3ccccc3)CC2)sc1C(=O)c1c(F)cccc1F
## Result 21%

* * *

assay-system: human CDK4 and genetically truncated (1-264) cyclin D3 (Homo sapiens, UniProt P11802)
Sequence (P11802 whole entry, the tested form may be a part): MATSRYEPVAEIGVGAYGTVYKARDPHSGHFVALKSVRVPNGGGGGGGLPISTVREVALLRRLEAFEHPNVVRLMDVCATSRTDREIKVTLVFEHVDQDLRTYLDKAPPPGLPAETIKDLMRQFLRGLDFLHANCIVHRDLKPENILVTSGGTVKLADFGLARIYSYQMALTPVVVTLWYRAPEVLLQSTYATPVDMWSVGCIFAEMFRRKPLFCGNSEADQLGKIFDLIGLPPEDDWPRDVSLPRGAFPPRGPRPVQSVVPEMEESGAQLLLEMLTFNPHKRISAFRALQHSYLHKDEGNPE
Sequence (P30281 1-264 partner): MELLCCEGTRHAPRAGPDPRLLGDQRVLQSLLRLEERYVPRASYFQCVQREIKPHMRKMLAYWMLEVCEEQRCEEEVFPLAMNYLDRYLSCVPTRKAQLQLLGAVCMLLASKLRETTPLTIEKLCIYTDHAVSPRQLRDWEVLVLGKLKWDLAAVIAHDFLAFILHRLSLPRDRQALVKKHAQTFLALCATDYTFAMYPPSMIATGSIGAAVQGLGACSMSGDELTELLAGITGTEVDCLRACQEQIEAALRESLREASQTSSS
assay-procedure: Inhibition of CDK4/Cyclin D Retinoblastoma Kinase Activity
Assay type: biochemical
assay-conditions: 0.03 μM compound; Table 3
Below, each entry is listed alongside its reported CDK4 % Inhibition at 0.03 μM.
API: value field is a number in %; no unit string.

Example cases with answers are listed next.
Nc1nc(NC2CCN(S(=O)(=O)c3ccc(Oc4ccncc4)cc3)CC2)sc1C(=O)c1c(F)cccc1F [Example P85]	14
CC(=O)Nc1nc(C)c(S(=O)(=O)N2CCC(Nc3nc(N)c(C(=O)c4c(F)cccc4F)s3)CC2)s1 [Example P4]	32
Nc1nc(NC2CCN(S(=O)(=O)c3ccccc3F)CC2)sc1C(=O)c1c(F)cccc1F [Example P32]	59

Now let's try a different one.
## Task Note CDK4 % Inhibition at 0.03 μM for the molecule shown: CS(=O)(=O)c1ccccc1S(=O)(=O)N1CCC(Nc2nc(N)c(C(=O)c3c(F)cccc3F)s2)CC1 [Example P81]
## Result 36

* * *

assay-system: CDK2/Cyclin A (Homo sapiens, UniProt P24941)
assay-procedure: Inhibition of CDK2/Cyclin A Retinoblastoma Kinase Activity
assay-conditions: apparent Ki, CDK2/proteolyzed cyclin A, Rb fragment substrate, 25 μM ATP
pKi: −log10 of the molar value. Structures can show the parent of a compound that is named as a salt.
pKi of 9 or higher: Condition met. Under 9: Condition not met.

Nc1nc(NC2CCN(C(=O)c3c[nH]cn3)CC2)sc1C(=O)c1c(F)cccc1F	Condition not met
CS(=O)(=O)N1CC[C@H](Nc2nc(N)c(C(=O)c3c(F)cccc3F)s2)C1	Condition not met
Nc1nc(NC2CCN(S(=O)(=O)CCCN3CCCCC3)CC2)sc1C(=O)c1c(F)cccc1F	Condition not met

## Task State whether the measured pKi reaches 9, counting equality as reaching it, for Cc1ncc(-c2ccc(S(=O)(=O)N3CCC(Nc4nc(N)c(C(=O)c5c(F)cccc5F)s4)CC3)cc2)[nH]1 [Example F33, Dihydrochloride]
## Result Condition met

## Task State whether the measured pKi reaches 9, counting equality as reaching it, for CN(C)CCN(C)Cc1ccc(S(=O)(=O)N2CCC(Nc3nc(N)c(C(=O)c4c(F)cccc4F)s3)CC2)cc1 [Example J9, Hydrochloride Salt]
## Result Condition not met

* * *

assay-system: CDK2/Cyclin A (Homo sapiens)
assay-procedure: Inhibition of CDK2/Cyclin A Retinoblastoma Kinase Activity
Assay type: biochemical
assay-conditions: apparent Ki, CDK2/proteolyzed cyclin A, Rb fragment substrate, 25 μM ATP
Description: Cyclin-dependent kinase activity was measured by quantifying the enzyme-catalyzed, time-dependent incorporation of radioactive phosphate from [^32P]ATP or [^33P]ATP into a protein substrate. […] The phosphorylated substrate was then captured on a nitrocellulose or phosphocellulose membrane using a 96-well filtration manifold, and unincorporated radioactivity was removed by repeated washing with 0.85% phosphoric acid. Radioactivity was quantified by exposing the dried membranes to a phosphorimager. […]
Where a name gives a salt, the structure may show the parent alone.
metric: pKi
Lab note: report pKi as minus log10 of the concentration in molar units, number only.

Example cases with answers are listed next.
CN1CCC[C@H]1COc1ccc(S(=O)(=O)N2CCC(Nc3nc(N)c(C(=O)c4c(F)cccc4F)s3)CC2)cn1	9.06
COc1ccc(Cl)cc1C(=O)N1CCC(Nc2nc(N)c(C(=O)c3c(F)cccc3F)s2)CC1	6.98
Nc1nc(NC2CCN(S(=O)(=O)CCN3CCC(c4ccccc4)C3)CC2)sc1C(=O)c1c(F)cccc1F (centres unmarked) [Example N5, Hydrochloride Salt]	8.74

## Task Note pKi for the compound shown: Nc1nc(NC2CCN(S(=O)(=O)CCCn3ccnc3)CC2)sc1C(=O)c1c(F)cccc1F
## Result 8.20

## Task Note pKi for the compound shown: Nc1nc(NC2CCN(C(=O)Oc3ccc([N+](=O)[O-])cc3)CC2)sc1C(=O)c1c(F)cccc1F
## Result 7.74

## Task Note pKi for the compound shown: Cc1cc(C)cc(CC(=O)N2CCC(Nc3nc(N)c(C(=O)c4c(F)cccc4F)s3)CC2)c1
## Result 7.07

* * *

Below, each entry is listed alongside its reported CDK4 % Inhibition at 0.03 μM.
assay-system: human CDK4 and genetically truncated (1-264) cyclin D3 (Homo sapiens, UniProt P11802)
assay-procedure: Inhibition of CDK4/Cyclin D Retinoblastoma Kinase Activity
Assay type: biochemical
assay-conditions: 0.03 μM compound; Table 3
API: value field is a number in %; no unit string.

Example cases with answers are listed next.
Nc1nc(NC2CCN(S(=O)(=O)c3ccc(Oc4ccc(I)cc4)cc3)CC2)sc1C(=O)c1c(F)cccc1F [Example P86]	51
Nc1nc(NC2CCN(S(=O)(=O)c3ccc(Oc4ccccc4)cc3)CC2)sc1C(=O)c1c(F)cccc1F [Example P84]	38
COC(=O)c1ccccc1S(=O)(=O)N1CCC(Nc2nc(N)c(C(=O)c3c(F)cccc3F)s2)CC1 [Example P28]	56

Now let's try a different one.
## Task Note CDK4 % Inhibition at 0.03 μM for the compound shown: COc1ccc(C)cc1S(=O)(=O)N1CCC(Nc2nc(N)c(C(=O)c3c(F)cccc3F)s2)CC1 [Example P59]
## Result 33

* * *

System: HCT-116 cell line
assay-procedure: Inhibition of cell growth, tetrazolium salt (MTT) assay
Type: cell-based
assay-conditions: 0.25 μM compound; HCT-116; Table 3
metric: HCT-116 % Inhibition at 0.25 μM (%)
API: value field is a number in %; no unit string.

Example cases with answers are listed next.
Nc1nc(NC2CCN(S(=O)(=O)Cc3ccccc3)CC2)sc1C(=O)c1c(F)cccc1F [Example P25]	33
CC(C)S(=O)(=O)N1CCC(Nc2nc(N)c(C(=O)c3c(F)cccc3F)s2)CC1 [Example P24]	36
Cc1ccc(S(=O)(=O)N2CCC(Nc3nc(N)c(C(=O)c4c(F)cccc4F)s3)CC2)cc1 [Example P23]	32
Nc1nc(NC2CCN(S(=O)(=O)c3ccc(O)c(C(=O)O)c3)CC2)sc1C(=O)c1c(F)cccc1F [Example P58]	30
Nc1nc(NC2CCN(S(=O)(=O)c3ccc([N+](=O)[O-])cc3)CC2)sc1C(=O)c1c(F)cccc1F [Example P19]	30

## Task Note HCT-116 % Inhibition at 0.25 μM for the molecule shown: Nc1nc(NC2CCN(S(=O)(=O)c3ccc(I)cc3)CC2)sc1C(=O)c1c(F)cccc1F [Example P16]
## Result 35

## Task Note HCT-116 % Inhibition at 0.25 μM for the molecule shown: Nc1nc(NC2CCN(S(=O)(=O)c3ccc(F)cc3Cl)CC2)sc1C(=O)c1c(F)cccc1F [Example P55]
## Result 25

* * *

Tested on: HCT-116 cell line
assay-procedure: Inhibition of cell growth, tetrazolium salt (MTT) assay
Type: cell-based
assay-conditions: 0.25 μM compound; HCT-116; Table 4
metric: HCT-116 % Inhibition at 0.25 μM (%)
API: value field is a number in %; no unit string.

Nc1nc(NC2CCN(C(=O)CCC3CCCC3)CC2)sc1C(=O)c1c(F)cccc1F	25
Nc1nc(NC2CCN(C(=O)[C@@H]3C[C@H]3c3ccccc3)CC2)sc1C(=O)c1c(F)cccc1F (relative stereo)	31
Nc1nc(NC2CCN(C(=O)c3ccc4c(c3)C(=O)OC4=O)CC2)sc1C(=O)c1c(F)cccc1F	34

Now let's try a different one.
## Task Give the observed HCT-116 % Inhibition at 0.25 μM of Nc1nc(NC2CCN(C(=O)c3ccc(F)c(F)c3)CC2)sc1C(=O)c1c(F)cccc1F for HCT-116 cell line.
## Result 33
